study.target: Rho-associated protein kinase 2 (Homo sapiens)
Sequence (O75116 whole entry): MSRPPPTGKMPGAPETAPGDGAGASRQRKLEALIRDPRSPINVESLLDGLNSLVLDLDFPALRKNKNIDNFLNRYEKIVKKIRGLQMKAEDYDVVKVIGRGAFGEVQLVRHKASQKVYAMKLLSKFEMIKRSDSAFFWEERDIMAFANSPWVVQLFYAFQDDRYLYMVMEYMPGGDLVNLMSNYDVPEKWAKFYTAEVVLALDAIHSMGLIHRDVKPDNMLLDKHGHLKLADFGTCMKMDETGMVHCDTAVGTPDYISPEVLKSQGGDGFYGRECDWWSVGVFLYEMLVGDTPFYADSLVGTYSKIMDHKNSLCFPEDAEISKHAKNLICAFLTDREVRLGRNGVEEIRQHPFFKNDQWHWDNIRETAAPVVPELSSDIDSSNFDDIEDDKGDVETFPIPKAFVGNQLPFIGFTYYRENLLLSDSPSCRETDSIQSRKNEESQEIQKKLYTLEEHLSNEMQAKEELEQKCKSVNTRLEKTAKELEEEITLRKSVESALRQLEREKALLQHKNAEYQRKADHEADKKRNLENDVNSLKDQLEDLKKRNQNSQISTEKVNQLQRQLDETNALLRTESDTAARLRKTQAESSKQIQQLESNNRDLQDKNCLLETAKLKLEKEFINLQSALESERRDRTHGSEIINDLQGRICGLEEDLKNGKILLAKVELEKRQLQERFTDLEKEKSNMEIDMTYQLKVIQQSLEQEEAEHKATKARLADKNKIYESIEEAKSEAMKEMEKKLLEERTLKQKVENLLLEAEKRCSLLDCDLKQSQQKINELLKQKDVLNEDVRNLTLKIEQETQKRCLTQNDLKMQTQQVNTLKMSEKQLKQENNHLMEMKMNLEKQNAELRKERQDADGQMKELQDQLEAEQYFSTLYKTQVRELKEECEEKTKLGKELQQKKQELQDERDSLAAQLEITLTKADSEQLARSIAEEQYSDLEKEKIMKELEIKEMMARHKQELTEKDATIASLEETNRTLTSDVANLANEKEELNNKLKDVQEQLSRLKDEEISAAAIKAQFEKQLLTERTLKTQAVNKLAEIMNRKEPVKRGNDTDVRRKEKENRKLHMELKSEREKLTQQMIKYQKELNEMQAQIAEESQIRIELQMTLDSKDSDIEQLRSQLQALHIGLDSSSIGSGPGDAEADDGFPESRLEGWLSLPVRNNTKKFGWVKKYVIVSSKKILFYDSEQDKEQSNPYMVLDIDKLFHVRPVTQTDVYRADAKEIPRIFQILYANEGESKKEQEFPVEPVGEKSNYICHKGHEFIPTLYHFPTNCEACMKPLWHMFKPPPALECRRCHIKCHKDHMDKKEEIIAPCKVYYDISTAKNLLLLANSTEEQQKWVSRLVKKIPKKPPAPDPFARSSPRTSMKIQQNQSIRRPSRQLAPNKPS
pIC50: −log10 of the molar value.
assay.metric: pIC50

Quick one: pIC50 of N[C@H](CCc1ccccc1)C(=O)Nc1ccc2c(c1)CCc1n[nH]cc1-2 [US10654860, Example 4] ?
> 8.00

Where do the numbers come from? From BindingDB's records for patent US10654860.
